Tested on: NIH-3T3 fibroblast viability, Alamar Blue fluorescence, 48 h
Assay: mammalian cell viability loss – Alamar Blue, cherry-pick, cytotoxicity control for antifungal single agent project, dose response (AID 588634)
This section presents compounds with their documented AC50 values.

Reference set, count: 3
> print(dat)
                                   compound                                    target  reading
1  CN1CCN(C(c2ccc(C(F)(F)F)cc2)c2cc(Cl)c3cccnc3c2O)CC1 (stereo unspecified)  NIH-3T3 fibroblast viability, Alamar Blue fluorescence, 48 h  1960 nM
2  O=Nc1c(-c2cccc([N+](=O)[O-])c2)nc2ncccn12  NIH-3T3 fibroblast viability, Alamar Blue fluorescence, 48 h  9990 nM
3       O=C(Oc1c(Cl)cc(Cl)c2cccnc12)c1cccs1  NIH-3T3 fibroblast viability, Alamar Blue fluorescence, 48 h   659 nM

The reported AC50 of the compound CCCCC(=O)NC(c1ccc(Cl)cc1)c1ccc2cccnc2c1O (stereo unspecified) was 1090 nM

Data point: O=C(N/N=C/c1cc2c3c(c1O)CCCN3CCC2)c1ccccc1O ; AC50 = 6370 nM

Lookup result for Oc1ccc(N=Nc2ccc3c(c2)OCCO3)c2cccnc12 ; measured AC50: 3140 nM
